# System: Beet Armyworm (Spodoptera exigua)
# PROTOCOL TEXT: Insecticidal diet-surface test for beet armyworm
# Format: in vivo
# CONDITION LABEL: 120 h, second-instar larvae on treated diet, 50 μg/cm^2 on diet surface, 5 days after treatment, 8 insects per treatment, read-out: LAPHEG AVG % Mortality (50 μg/cm^2)
REPORTED METRIC: mortality at 50 µg/cm2

INSERT INTO measurements (compound, target_or_test_system, reported_metric, measurement) VALUES
  ('Cc1c(OCC(F)(F)F)nc(NC(=O)N(C)c2ccc(C(F)(F)F)cc2)nc1OCC(F)(F)F [Compound 141]', 'Beet Armyworm (Spodoptera exigua)', 'mortality at 50 µg/cm2', '100%'),
  ('CN(C(=O)Nc1cc(OCC(F)(F)F)nc(OCC(F)(F)F)n1)c1ccc(OC(F)(F)F)cc1 [Compound 106]', 'Beet Armyworm (Spodoptera exigua)', 'mortality at 50 µg/cm2', '100%'),
  ('O=C(Nc1ccc([N+](=O)[O-])cc1)Nc1nc(OCC(F)(F)F)cc(OCC(F)(F)F)n1 [Compound 56]', 'Beet Armyworm (Spodoptera exigua)', 'mortality at 50 µg/cm2', '0%'),
  ('CC(C)N(C(=O)Nc1nc(OCC(F)(F)F)cc(OCC(F)(F)F)n1)c1ccc(OC(F)(F)F)cc1 [Compound 69]', 'Beet Armyworm (Spodoptera exigua)', 'mortality at 50 µg/cm2', '100%'),
  ('Cc1c(OCC(F)(F)F)nc(NC(=O)Nc2ccc(Br)cc2)nc1OCC(F)(F)F [Compound 139]', 'Beet Armyworm (Spodoptera exigua)', 'mortality at 50 µg/cm2', '88%'),
  ('O=C(Nc1cc(OCC(F)(F)F)nc(OCC(F)(F)F)n1)N(CCF)c1ccc(OC(F)(F)F)cc1 [Compound 114]', 'Beet Armyworm (Spodoptera exigua)', 'mortality at 50 µg/cm2', '100%'),
  ('CN(C(=O)Nc1nc(OCC(F)(F)F)cc(OCC(F)(F)F)n1)c1ccc(Br)cc1 [Compound 41]', 'Beet Armyworm (Spodoptera exigua)', 'mortality at 50 µg/cm2', '100%'),
  ('CN(C(=O)Nc1nc(OCC(F)(F)C(F)(F)F)cc(OCC(F)(F)C(F)(F)F)n1)c1ccc(C(F)(F)F)cc1 [Compound 176]', 'Beet Armyworm (Spodoptera exigua)', 'mortality at 50 µg/cm2', '100%'),
  ('FC(F)(F)COc1cc(OCC(F)(F)F)nc(NC(=S)Nc2ccc(C(F)(F)F)cc2)n1 [Compound 130]', 'Beet Armyworm (Spodoptera exigua)', 'mortality at 50 µg/cm2', '100%'),
  ('CN(C(=O)Nc1nc(OCC(F)(F)F)cc(OCC(F)(F)F)n1)c1ccc(OC(F)(F)F)cc1 [Compound 7]', 'Beet Armyworm (Spodoptera exigua)', 'mortality at 50 µg/cm2', '100%'),
  ('O=C(Nc1ccc(SC(F)(F)F)cc1)Nc1nc(OCC(F)(F)F)cc(OCC(F)(F)F)n1 [Compound 58]', 'Beet Armyworm (Spodoptera exigua)', 'mortality at 50 µg/cm2', '100%'),
  ('O=C(Nc1nc(OCC(F)(F)F)cc(OCC(F)(F)F)n1)N(O)c1ccc(Cl)cc1 [Compound 64]', 'Beet Armyworm (Spodoptera exigua)', 'mortality at 50 µg/cm2', '100%');
